Form field: GI50 (one value per entry).
- Test system: 786-0 renal
- PROCEDURE_SUMMARY: NCI tumour cell line growth inhibition, 48 h

• CCOC(=O)c1c(CN2CCCCC2)nc2ccc(Cl)cc2c1-c1ccccc1 = 19200 nM
• OC[C@H]1C[C@](O)(c2ccccc2Cl)[C@@H](c2ccccc2Cl)O1 = 26100 nM

Prompt: Using known records, supply GI50 for CC[C@H](C)[C@H](NC(=O)CN(C)C)C(=O)N(C)[C@H](C[C@@H](OC(C)=O)c1nc(C(=O)NC23C4C5C2C2C3C4C52C(=O)OC)cs1)C(C)C (stereo not given in full)
Response: 790 nM

Prompt: Look up and report measured GI50 for this entry: "N#Cc1cnn(C(=O)c2nn(-c3ccc(Cl)cc3)cc2O)c1N"
Response: 658 nM

Prompt: Recall and state the measured GI50 for COc1cc(C2c3cc4c(cc3[C@@H](Nc3ccc(F)cc3)C3COC(=O)[C@H]23)OCO4)cc(OC)c1O (stereo not given in full) .
Response: 567 nM

* * *

- Test system: MCF7 breast
- PROCEDURE_SUMMARY: NCI tumour cell line growth inhibition, 48 h
# key: entry, value: TGI

The cases that follow already have their TGI on record.
- COc1ccccc1NC(=O)c1sc2ncn(CCOc3ccccc3)c(=O)c2c1C: > 50 µM
- CCC(C)C(NC(=O)c1cccc2c(=O)c3ccccc3[nH]c12)C(=O)O (stereo unspecified): > 100 µM

Prompt: Return TGI for the following compound: "O=C(/C=C/c1ccco1)Nc1ncc(Cc2cc(Cl)ccc2Cl)s1"
Response: > 100 µM

Prompt: Report TGI, nothing else, for this compound: COc1cc([C@H]2OC[C@@H]3C(c4cc(OC)c5c(c4)OCO5)OC[C@H]23)cc(OC)c1OC (stereo partly specified)
Response: > 100 µM

Prompt: State its TGI for this compound: CC(C)C(Sc1nc(N)nc2nc[nH]c12)C(=O)O (stereo unspecified)
Response: > 100 µM

Prompt: Tell me TGI reported for "ClC/C=C/CSc1ncnc2nc[nH]c12"
Response: > 100 µM

* * *

- System: HCC-2998 colon
- PROCEDURE_SUMMARY: NCI tumour cell line growth inhibition, 48 h
ATTRIBUTE_MEASURED: TGI (µM)
Enter your answer as a number in µM; do not include the unit.

// below: answered compounds
- COc1cccc(/C=C\C(=O)c2ccccc2)c1: 25.7
- COc1cc2c3c(c4ccc(O)cc4c2cc1OC)[C@@H](O)[C@@H]1CCCN1C3: 0.002
- CC1OC(O[C@@H]2C=C3CC[C@@H]4[C@H](CC[C@]5(C)[C@@H](c6ccc(=O)oc6)CC[C@]45O)[C@@]3(C)CC2)C(O)C(O)C1O (stereo partly drawn): 0.003

# context switch: different compound, same TGI
Prompt: With HCC-2998 colon as the test system, provide measured TGI for this compound: "O=C1c2cccc3cc([N+](=O)[O-])cc(c23)C(=O)N1c1ccc(OCCN2CCCC2)cc1"
Response: 33.5

* * *

- System: SNB-19 CNS
- PROCEDURE_SUMMARY: NCI tumour cell line growth inhibition, 48 h
ATTRIBUTE_MEASURED: TGI

• COc1ccc(/C=C(\C#N)c2ccccn2)cc1OC = > 100 µM
• O=C(O)COc1c(Cl)cc(Cl)c(C(c2c(Cl)cc(Cl)c(OCC(=O)O)c2Cl)C(Cl)(Cl)Cl)c1Cl = > 100 µM

Prompt: Supply measured TGI of "C#C[C@]1(O)CC[C@H]2[C@@H]3CCC4=C/C(=N/OC(=O)c5cccc6cc7ccccc7nc56)CC[C@@H]4[C@H]3CC[C@@]21CC" in your reply.
Response: > 100 µM

Prompt: In one line, give reported TGI of the entry "COC(=O)c1sc(-n2cnc3cc(OC)c(OC)cc32)cc1OCc1ccccc1C(F)(F)F" .
Response: > 25 µM

Prompt: State its TGI: "N#Cc1c(N)oc2cc3c(C#N)c(N)oc3cc12"
Response: > 100 µM

Prompt: Specify TGI for COC1=CC(=O)[C@@]2(C)C(C)[C@H](c3ccccc3)[C@H]2C1=O (some centres undefined) and stop.
Response: > 100 µM

Prompt: Give TGI for "CCOc1c2c(cc3c1C(=O)c1c(OC)cccc1C3=O)C=C(OC)CC2"
Response: > 25 µM

Prompt: Quote TGI reported for CC(=O)OC1(C(C)=O)CC2(c3ccccc3)OC1(c1ccccc1)c1ccccc12 (centres undefined) please.
Response: > 100 µM

Prompt: Identify measured TGI corresponding to "Cc1ccc2nc(CN(CCN(Cc3nc4ccc(C)cc4[nH]3)Cc3nc4ccc(C)cc4[nH]3)Cc3nc4ccc(C)cc4[nH]3)[nH]c2c1"
Response: 3.07 µM
